B1: TPR 5TU (parent)
chain: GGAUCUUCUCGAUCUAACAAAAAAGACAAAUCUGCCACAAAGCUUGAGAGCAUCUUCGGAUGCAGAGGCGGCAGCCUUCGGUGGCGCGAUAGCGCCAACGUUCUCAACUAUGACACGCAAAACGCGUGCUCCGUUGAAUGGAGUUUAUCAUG

# Variants of: B1
# protocol: polymerase ribozyme fitness, log enrichment relative to wild type (log ratio); higher = more active; in vitro selection for triplet polymerase activity
This sample holds only a part of the variants without activity.
Short version: polymerase ribozyme fitness (log ratio) at least -2 is criterion met, less is criterion not met.

## Input Quick check: does A41U U82A A142C have polymerase ribozyme fitness (log ratio) greater than or equal to -2?
## Output criterion not met

## Input Could you tell me if the measured polymerase ribozyme fitness (log ratio) of A47U C51A G58A G80A G83A C103U reaches -2 or more?
## Output criterion not met

## Input Has A40G C93U A106G C118U a recorded polymerase ribozyme fitness (log ratio) greater than or equal to -2?
## Output criterion not met

## Input Hello, I need to know if U31A A73U C95G has measured polymerase ribozyme fitness (log ratio) not below -2. Thanks!
## Output criterion not met

## Input hey, is polymerase ribozyme fitness (log ratio) for this one >= -2? C5U C75A
## Output criterion not met

## Input Kindly determine if polymerase ribozyme fitness (log ratio) recorded for C43G G50C G62A G84A G92C is above or exactly -2.
## Output criterion not met

## Input Say whether U56A C96A C103U shows polymerase ribozyme fitness (log ratio) of -2 or more.
## Output criterion met

## Input Check this variant for polymerase ribozyme fitness (log ratio) at or above -2: G92A C149U
## Output criterion not met

## Input In plain terms: is recorded polymerase ribozyme fitness (log ratio) at least -2 for A22U C123G ?
## Output criterion met

## Input Check this variant for polymerase ribozyme fitness (log ratio) at or above -2: C5A U61A U102G
## Output criterion not met

## Input // inclusive: polymerase ribozyme fitness (log ratio) at least -2? input: U55G G58A C93A U109G
## Output criterion not met

## Input Decide: polymerase ribozyme fitness (log ratio) of A20U A28C G83U C87A C99G G140A >= -2?
## Output criterion not met

## Input Item A122G C125A U134G with polymerase ribozyme fitness (log ratio) of -2 or above?
## Output criterion not met

## Input Could you tell me if the measured polymerase ribozyme fitness (log ratio) of C76A A122G reaches -2 or more?
## Output criterion met

## Input Does the variant U56A C57U have recorded polymerase ribozyme fitness (log ratio) that is -2 or more?
## Output criterion met

## Input Does the reported polymerase ribozyme fitness (log ratio) for G84U C105A U139C fall at or above the -2 mark?
## Output criterion not met

## Input Textbook exercise: given the entry A119C G143A , state whether its polymerase ribozyme fitness (log ratio) is greater than or equal to -2.
## Output criterion met

## Input Test whether the variant A26C A107G records polymerase ribozyme fitness (log ratio) of -2 or higher.
## Output criterion not met

## Input Evaluate U13C U53G C87A A120U A142U U146A : polymerase ribozyme fitness (log ratio) at minimum -2?
## Output criterion not met

## Input hey, is polymerase ribozyme fitness (log ratio) for this one >= -2? G84A U104C
## Output criterion met

## Input I'd appreciate it if you could say whether C8U A47G has polymerase ribozyme fitness (log ratio) at least equal to -2.
## Output criterion not met

## Input Check this variant for polymerase ribozyme fitness (log ratio) at or above -2: C27A U45G G46A A60U C95G G124U
## Output criterion not met

## Input Tell me whether polymerase ribozyme fitness (log ratio) is at least -2 here: U45A G50U G83U C87U C103U C105A
## Output criterion not met

## Input Entry C38U C96G A142U U146A : is its polymerase ribozyme fitness (log ratio) no less than -2?
## Output criterion met

## Input Assess whether reported polymerase ribozyme fitness (log ratio) for U31G C125U U130A sits at -2 or higher.
## Output criterion not met

## Input Would you say C14G G25U C36A U55G G65C C75U G141C shows polymerase ribozyme fitness (log ratio) at minimum -2?
## Output criterion not met

## Input Exam item: decide whether the reported polymerase ribozyme fitness (log ratio) for C18U G50C G88C C99U is at least -2.
## Output criterion not met

## Input polymerase ribozyme fitness (log ratio) >= -2 for U9C C14U C76A C87G ?
## Output criterion not met

## Input API: above_or_equal(metric=polymerase ribozyme fitness (log ratio), cutoff=-2) for item C54U C99G U101G A142U
## Output criterion not met

## Input Check the entry U109G C118A C125G : does polymerase ribozyme fitness (log ratio) equal or exceed -2?
## Output criterion not met

## Input Reported polymerase ribozyme fitness (log ratio) at or above -2? C51U C75U G88A C93U G94A G136C
## Output criterion not met

## Input Please tell me: is the variant C36U U134G U148A at or over -2 in terms of polymerase ribozyme fitness (log ratio)?
## Output criterion not met

## Input Textbook exercise: given the entry G50U A97U A147U , state whether its polymerase ribozyme fitness (log ratio) is greater than or equal to -2.
## Output criterion met

## Input Entry A20G A22U C87U : is its polymerase ribozyme fitness (log ratio) no less than -2?
## Output criterion not met

## Input Entry C85U U145A : is its polymerase ribozyme fitness (log ratio) no less than -2?
## Output criterion met

## Input Does the reported polymerase ribozyme fitness (log ratio) for A30G G48A G80U G88U U109C fall at or above the -2 mark?
## Output criterion not met

## Input hey, is polymerase ribozyme fitness (log ratio) for this one >= -2? U56A A60C G92U
## Output criterion met

## Input Dear colleague, could you confirm whether A39C C118G has polymerase ribozyme fitness (log ratio) at or above -2?
## Output criterion not met

## Input Say whether C57G C114U shows polymerase ribozyme fitness (log ratio) of -2 or more.
## Output criterion met

## Input Reported polymerase ribozyme fitness (log ratio) reaches at least -2 for A39G G80C C93U C118U ?
## Output criterion not met

## Input Can A12G U55A U61G C125G be said to have polymerase ribozyme fitness (log ratio) at or above -2?
## Output criterion not met

## Input Please check the record A39G U55G G84A U135G and state if its polymerase ribozyme fitness (log ratio) is at or above -2.
## Output criterion not met

## Input Is polymerase ribozyme fitness (log ratio) for C93U A119G G143U U145G at or above -2?
## Output criterion not met

## Input For this variant, is measured polymerase ribozyme fitness (log ratio) -2 or higher? A19U A49C C54A G62A A119G C125U U144A
## Output criterion not met

## Input Check if polymerase ribozyme fitness (log ratio) >= -2 (inclusive). Item: A106U U135A
## Output criterion not met
